assay: Stability of cannabinoid and Vitamin E components of Beverage 1 (AB White) stored at 8° C. and 21-25° C., LCMSMS over 570 days; assay type: physicochemical; conditions: beverage stored at 8° C., day 480
ENDPOINT_NAME: Stability in AB White, 8° C. (content by LCMSMS) (µg/mL)
Field: numeric (µg/mL). Do not append units.

# count of solved cases: 2
**Q:** Given the molecule CCCc1cc(O)c2c(c1)OC(C)(C)[C@@H]1CCC(C)=C[C@@H]21 [THCV, delta-9-tetrahydrocannabivarin] , write its reported Stability in AB White, 8° C. (content by LCMSMS).
**A:** 3.44

**Q:** Given the molecule C=C(C)[C@@H]1CCC(C)=C[C@H]1c1c(O)cc(CCCCC)c(C(=O)O)c1O , write its reported Stability in AB White, 8° C. (content by LCMSMS).
**A:** 1.66

Proceeding to the next molecule to report its Stability in AB White, 8° C. (content by LCMSMS).
**Q:** Given the molecule CCCCCc1cc(O)c(C/C=C(\C)CCC=C(C)C)c(O)c1 , write its reported Stability in AB White, 8° C. (content by LCMSMS).
**A:** 4.64

Data credit: patent US20240415914A1
